Assign Pre-emerge phytotoxicity rating, crop damage RICE to each entry below.
Test system: upland rice (Oryza sp., var. Tebonnet, RICE)
Test: Pre-emerge test, crop safety
Assay type: in vivo
Details: 250 g ai/ha; rating scale 0-100, 14 days after application
Method: A standard greenhouse herbicide activity screening system was used to evaluate the herbicidal efficacy and crop safety of these test compounds. […] At 14 days after application of the test materials, phytotoxicity ratings were recorded. […]
Answers are plain numbers.

Here's what some known entries look like.
[[record]]
compound = "CCOC(=O)CCc1c(OC)c(Cl)cc(F)c1-n1c(=O)cc(C(F)(F)F)n(C)c1=O"
test_result = 45

[[record]]
compound = "CCCCOC(=O)C(C)(Cl)Cc1c(OC)c(Cl)cc(F)c1-n1c(=O)cc(C(F)(F)F)n(C)c1=O (centres unmarked)"
test_result = 70


Provide Pre-emerge phytotoxicity rating, crop damage RICE for all items below, preserving their order.
1. CCCCCCOC(=O)C(C)(Cl)Cc1c(OC)c(Cl)cc(F)c1-n1c(=O)cc(C(F)(F)F)n(C)c1=O (centres unmarked)
2. CCOC(=O)C(C)(Cl)Cc1c(OC)c(Cl)cc(F)c1-n1c(=O)cc(C(F)(F)F)n(C)c1=O (centres unmarked)
3. CCCOC(=O)C(C)(Cl)Cc1c(OC)c(Cl)cc(F)c1-n1c(=O)cc(C(F)(F)F)n(C)c1=O (centres unmarked)
4. Nc1c(O)c(Cl)cc(F)c1N1C(=O)C2CCCCN2C1=S (single isomer, unassigned) [12-2]
5. CCCOC(=O)C(Cl)Cc1c(OC)c(Cl)cc(F)c1-n1c(=O)cc(C(F)(F)F)n(C)c1=O (single isomer, unassigned) [14-7]
6. COc1c(Cl)cc(F)c(N2C(=O)c3ccccc3C2=O)c1NC(=O)c1ccc(F)cc1F

30
90
10
99
40
30

----------
test system: sicklepod (Cassia obtusifolia, CASOB); assay: Post-emerge test, greenhouse herbicide activity screening; assay type: in vivo; details: post-emerge, 250 g ai/ha, 14 days after application, rating scale 0-100
Measured quantity: CASOB phytotoxicity rating
One number for each entry.

Worked cases, CASOB phytotoxicity rating given:
[[record]]
compound = "COc1ccc(-n2c(=O)cc(C(F)(F)F)n(C)c2=O)c(NC(=O)c2ccc3ccccc3c2)c1 [2-143]"
measurement_target = "sicklepod (Cassia obtusifolia, CASOB)"
measured_quantity = "CASOB phytotoxicity rating"
test_result = 100

[[record]]
compound = "N#CCOc1c(Cl)cc(F)c(-n2c(=O)cc(C(F)(F)F)n(N)c2=O)c1NC(=O)c1ccc2ccccc2c1 [2-188]"
measurement_target = "sicklepod (Cassia obtusifolia, CASOB)"
measured_quantity = "CASOB phytotoxicity rating"
test_result = 90

[[record]]
compound = "COc1c(Cl)cc(F)c(-n2c(=O)cc(C(F)(F)F)n(C)c2=O)c1NC(=O)COc1ccc(F)cc1 [2-133]"
measurement_target = "sicklepod (Cassia obtusifolia, CASOB)"
measured_quantity = "CASOB phytotoxicity rating"
test_result = 100


Could you now look at the following compound, please?
Quickly give me recorded CASOB phytotoxicity rating for COc1c(Br)cc(F)c(-n2c(=O)cc(C(F)(F)F)n(C)c2=O)c1N(C(=O)C=Cc1ccccc1)C(=O)C=Cc1ccccc1 [2-178] 0

----------
system: field corn (Zea mays L., var. Dekalb 535, CORN); experiment: Post-emerge test, crop safety; type: in vivo; settings: Rate 250 g ai/ha; rating scale 0-100 (0 no damage, 100 complete death); 14 days after application
Measured quantity: Post-emerge phytotoxicity rating CORN (crop damage)
Answers are plain numbers.

[[record]]
compound = "C=CCOC(=O)C(C)(Cl)Cc1c(OC)c(Cl)cc(F)c1-n1c(=O)cc(C(F)(F)F)n(C)c1=O (stereo not shown)"
test_result = 100


Give measured Post-emerge phytotoxicity rating CORN (crop damage) for every item shown.
1. CCCCOC(=O)C(Cl)Cc1c(OC)c(Cl)cc(F)c1-n1c(=O)cc(C(F)(F)F)n(C)c1=O (single isomer, unassigned) [14-9]
2. CCCOC(=O)C(Cl)Cc1c(OC)c(Cl)cc(F)c1-n1c(=O)cc(C(F)(F)F)n(C)c1=O (single isomer, unassigned) [14-7]
3. C#CCOC(=O)C(C)(Cl)Cc1c(OC)c(Cl)cc(F)c1-n1c(=O)cc(C(F)(F)F)n(C)c1=O (stereo not shown)
4. COc1c(Cl)cc(F)c(-n2c(=O)cc(C(F)(F)F)n(C)c2=O)c1CC(Cl)C(=O)OCC(Br)CBr (single isomer, unassigned) [14-30]
5. C=COC(=O)C(C)(Cl)Cc1c(OC)c(Cl)cc(F)c1-n1c(=O)cc(C(F)(F)F)n(C)c1=O (stereo not shown)
6. CCCCCCOC(=O)C(Cl)Cc1c(OC)c(Cl)cc(F)c1-n1c(=O)cc(C(F)(F)F)n(C)c1=O (single isomer, unassigned)

99
100
100
20
100
85

Reference source: patent US6355799B1
